tested on: AURKA; conditions: concentration: 1 μM, replicates: in singlicate; n = 1;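 note: KINOMEscan kinase panel screen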

| molecule | assay.target | %Inh |
| --- | --- | --- |
| NCC(NC(=O)c1cc(-c2cn[nH]c2)c(-c2ccnc3[nH]ccc23)s1)c1ccccc1.O=C(O)C(F)(F)F.O=C(O)C(F)(F)F (centres unmarked) | AURKA | 95.6% |
| CCn1cnc2c(N)ncnc21 | AURKA | 4% |
| Cn1ccc2ncnc(Oc3ccc(NC(=O)Nc4ccncc4)c(Cl)c3)c21 | AURKA | 0% |
| Fc1ccc(-c2nn3c(OCC(F)(F)F)cccc3c2-c2ccncc2)cc1 | AURKA | 0% |
| O=C(NOCC1CC1)c1ccc(F)c(F)c1Nc1ccc(I)cc1Cl | AURKA | 0% |

###

As shown below, each of these compounds has a reported %Inh value.
tested on: EPHB2; conditions: concentration: 1 μM, replicates: in singlicate; n = 1

| compound | %Inh [%] |
| --- | --- |
| Cn1cc(-c2ccc3c(c2)CCN3C(=O)Cc2ccccc2Cl)c2c(N)ncnc21 | 64 |
| CN(C1=C(c2ccccc2)C(=O)NC1=O)c1ccccc1 | 20 |
| CCc1nc(-c2cccc(C)c2)c(-c2ccnc(NCc3ccccc3)c2)s1 | 6 |
| CNc1ncnc2[nH]ncc12 | 0 |
| COc1cc2ncn(-c3cc(OCc4sccc4Cl)c(C(N)=O)s3)c2cc1OC | 9 |
| COc1ccc(CNC(=O)NC2CCN(c3ccnc(Nc4ccc(OC)cc4)n3)C2)cc1 (stereo not drawn) | 0 |
| O=C(Nc1cccc(-c2nn3ncccc3c2-c2ccnc(Nc3cccc(C(F)(F)F)c3)n2)c1)c1c(F)cccc1F | 0 |
| CN(C(=O)c1ccc(-c2cc(-c3c[nH]nc3-c3ccccn3)ccn2)cc1)C1CCOCC1 | 0 |
| Nc1nc(-c2ccc3c(N)n[nH]c3c2)cc(N2CCCC2)n1 | 0 |
| O=C(NCCCN1CCOCC1)c1cccc(Nc2nccc(Nc3ccc(Oc4ccccc4)cc3)n2)c1 | 0 |
| COc1ccc(S(=O)(=O)NC2CCN(c3cc(C)nc(Nc4cccc(C#N)c4)n3)CC2)cc1.O=C(O)C(F)(F)F | 0 |
| COc1ccc(COc2cc(-n3cnc4ccccc43)sc2C(N)=O)cc1 | 9 |
| CSc1ccc(-c2cc3ncnc(SCC(=O)O)c3s2)cc1 | 0 |
| O=C(Nc1n[nH]c2cc(-c3cccc(F)c3)ccc12)C1CC1 | 0 |
| O=c1cc(N2CCOCC2)nc2n(Cc3cccc(F)c3)ccn12 | 0 |
| Fc1ccc(-c2ncn(CCCN3CCOCC3)c2-c2ccccn2)cc1 | 0 |
| Cc1c2ccc(N(C)c3ccnc(Nc4cccc(S(N)(=O)=O)c4)n3)cc2nn1Cc1ccccc1.Cl.Cl | 20 |
| Fc1ccc(-c2ncn(CCCN3CCOCC3)c2-c2cccnc2)cc1 | 0 |

###

system: AURKA; conditions: concentration: 1 μM, replicates: in singlicate; n = 1
observable: %Inh (%)

| smiles.representation | reported.measurement |
| --- | --- |
| CC(=O)Nc1ccc(COc2ccc(Nc3ccnc4cc(-c5ccccn5)ccc34)cc2)cc1.Cl | 14 |
| Cc1cccc(-c2nc(Nc3ccc4ncsc4c3)c3ccccc3n2)n1 | 22 |
| O=C(NCCNc1ccnc(Nc2ccc(F)cc2)n1)Nc1ccccc1F | 11 |
| O=C1Cc2cc(Nc3nc(NCc4cccc(S(=O)(=O)C(F)(F)F)c4)ncc3C(F)(F)F)ccc2N1 | 1 |
